assay: viability loss with induced miR-34 in A549 – imaging, A549 dox-inducible miR-34, nuclei and caspase counts, primary screen (AID 1347080); conditions: A549 miR-34 inducible, Hoechst nuclei count, 48 h; measured here: relative caspase fold change +Dox/-Dox; note: test concentration not given here
observable: fold change
Keep it simple and answer with nothing but the number.

The cases that follow already have their fold change on record.
CCCCCCCCCCCCCCCCOCC(CO)OC (stereo unspecified) = 1.45
O=C(O)c1cc(=O)cc(C(=O)O)[nH]1 = 1.62
COC1CC2CCC(C)[C@@](O)(O2)C(=O)C(=O)N2CCCCC2C(=O)OC(C(C)CC2CCC(OCCO)C(OC)C2)CC(=O)C(C)C=C(C)C(O)C(OC)C(=O)C(C)CC(C)C=CC=CC=C1C (stereo partly specified) = 1
CN1CCC2(CCN3CCc4c(oc5ccccc45)C3C2)N(C)C1=O (stereo unspecified) = 0.751
O=C(OC1CC2CC3C[C@@H](C1)N2CC3=O)c1c[nH]c2ccccc12 (stereo partly specified) = 1.48
CC(=O)N[C@@H](CC(=O)N[C@H](CCC(=O)O)C(=O)O)C(=O)O = 1.02
CC(C)c1nc(N(C)S(C)(=O)=O)nc(-c2ccc(F)cc2)c1C=CC(O)CC(O)CC(=O)O (stereo unspecified) = 0.647
OC1(c2ccc(Cl)cc2)CCN(Cc2c[nH]c3ccccc23)CC1 = 1.16
Cc1cc(Nc2nc(NC(C)c3ncc(F)cn3)ncc2Cl)n[nH]1 (stereo unspecified) = 1.17
O=C1NC(=O)C(=Cc2ccc(-c3ccc(F)cc3O)o2)S1 = 0.626

Please list fold change recorded for the molecule Cc1nn(C)cc1-c1ccnc(NCC(C)Oc2cccnc2)n1 (stereo unspecified)
1.28

Provide measured fold change value, entry: O=C1c2c(O)cc(O)cc2OC(c2cc(O)c(O)c(O)c2)C1O (stereo unspecified)
0.77

Answer with the recorded fold change for the molecule listed here: `CCNC(=O)c1[nH]nc(-c2cc(Cl)c(O)cc2O)c1-c1ccc(OC)cc1`
0.416

Tell me its fold change given CCC1OC(=O)C(C)C(OC2C[C@@](C)(OC)C(O)C(C)O2)C(C)C(OC2OC(C)CC(N(C)C)C2O)[C@](C)(O)CC(C)C(=NOCOCCOC)C(C)C(O)[C@]1(C)O (stereo partly specified) as the entry.
0.933

For the molecule `CS(=O)(=O)Nc1ccc(C(=O)O)cc1` , give its measured fold change value.
0.714

Please report fold change for the following molecule: `O=C(O)Cc1c[nH]c2ccccc12`
0.9
